Target: T1, FPRL1 (FPR-related receptor 1) (UniProt P25090 1-351, limits assumed)
T1 construct: whole, on cells; Expressed in CHO cells (with Gα16 in the calcium flux assay); also called lipoxin A4 receptor; LXA4R
T1 sequence (looked up): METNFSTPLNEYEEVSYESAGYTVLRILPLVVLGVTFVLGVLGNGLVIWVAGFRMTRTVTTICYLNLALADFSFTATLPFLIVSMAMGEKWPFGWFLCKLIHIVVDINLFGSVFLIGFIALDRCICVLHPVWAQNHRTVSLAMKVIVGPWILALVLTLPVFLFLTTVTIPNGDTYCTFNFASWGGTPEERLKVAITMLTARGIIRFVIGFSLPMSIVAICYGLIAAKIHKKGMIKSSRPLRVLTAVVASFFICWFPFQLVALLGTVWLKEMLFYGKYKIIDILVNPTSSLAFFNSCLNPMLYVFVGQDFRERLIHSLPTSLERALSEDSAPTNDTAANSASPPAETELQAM
Assay: competitive radioligand binding against 0.025 nM [125I] WKYMVm on FPRL1-transfected CHO cells, 90 min at 25 C
No end group written: not given here.
measurement.type: pKi
Remember, pKi is on a log scale: it is -log10 of the molar concentration.

Q) Would you mind telling me what pKi value was observed for TIPMFVPESTSKLQKFTSWFM-NH2 (Synthetic peptide (SPPS); also called P58; peptide P58) [Peptide 58] ?
A) 7.27
